This collection of values is drawn from patent US20260053904A1.

Let's look at some binders and their measured EC50.
target: T1, cyno EpCAM expressed on 293 cells (cynomolgus monkey); assay: FACS on 293 cells expressing cyno EpCAM, pH 7.4
T1 construct: whole, on cells; also called 293 cells expressing cyno EpCAM
T1 sequence (Q1WER1 24-314): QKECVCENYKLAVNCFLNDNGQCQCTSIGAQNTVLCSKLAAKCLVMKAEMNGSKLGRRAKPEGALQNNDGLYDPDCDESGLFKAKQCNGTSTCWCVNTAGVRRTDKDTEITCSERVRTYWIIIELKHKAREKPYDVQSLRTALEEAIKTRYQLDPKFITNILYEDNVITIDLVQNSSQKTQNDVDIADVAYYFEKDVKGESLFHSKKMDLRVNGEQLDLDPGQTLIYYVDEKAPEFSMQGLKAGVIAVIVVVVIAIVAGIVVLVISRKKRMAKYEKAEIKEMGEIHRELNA
Just the number in µg/mL, nothing appended.

Please review the following examples before continuing.
- BINDER: "BAP-105.4-02-01 (antibody, V domains shown, Humanized) VH: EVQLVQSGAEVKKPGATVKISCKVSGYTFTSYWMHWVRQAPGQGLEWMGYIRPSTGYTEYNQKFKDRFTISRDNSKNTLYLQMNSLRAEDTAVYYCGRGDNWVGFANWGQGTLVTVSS VL: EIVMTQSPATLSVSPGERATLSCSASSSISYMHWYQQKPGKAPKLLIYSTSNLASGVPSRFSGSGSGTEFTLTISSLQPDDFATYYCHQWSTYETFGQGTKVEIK"
  UNIT_ANNOTATION: "µg/mL"
  QUANTITATIVE_RESULT: 14.1
- BINDER: "BAP-105.4-03-02 (antibody, V domains shown, Humanized) VH: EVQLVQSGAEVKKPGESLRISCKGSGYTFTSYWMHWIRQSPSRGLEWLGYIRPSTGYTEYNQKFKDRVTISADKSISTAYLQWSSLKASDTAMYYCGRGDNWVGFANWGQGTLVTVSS VL: EIVMTQSPATLSVSPGERATLSCSASSSISYMHWYQQKPGKAPKLLIYSTSNLASGIPPRFSGSGYGTDFTLTINNIESEDAAYYFCHQWSTYETFGQGTKVEIK"
  UNIT_ANNOTATION: "µg/mL"
  QUANTITATIVE_RESULT: 4.46
- BINDER: "BAP-105.4-01-05 (antibody, V domains shown, Humanized) VH: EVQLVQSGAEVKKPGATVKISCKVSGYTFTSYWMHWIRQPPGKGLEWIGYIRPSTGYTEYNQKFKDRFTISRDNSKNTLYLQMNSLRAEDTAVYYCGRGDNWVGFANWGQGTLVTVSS VL: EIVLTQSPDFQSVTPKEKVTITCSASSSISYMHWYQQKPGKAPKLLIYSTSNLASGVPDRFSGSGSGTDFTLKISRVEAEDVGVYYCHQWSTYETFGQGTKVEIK"
  UNIT_ANNOTATION: "µg/mL"
  QUANTITATIVE_RESULT: 11.6

EC50 in this record for BAP-105.4-01-02 (antibody, V domains shown, Humanized) VH: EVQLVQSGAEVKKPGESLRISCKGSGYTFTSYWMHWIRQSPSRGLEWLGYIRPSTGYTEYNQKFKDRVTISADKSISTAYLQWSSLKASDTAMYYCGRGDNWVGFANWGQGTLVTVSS VL: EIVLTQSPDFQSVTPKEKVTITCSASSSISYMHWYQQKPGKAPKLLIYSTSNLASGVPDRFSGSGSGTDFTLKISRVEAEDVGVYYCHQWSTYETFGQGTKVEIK : 6.36

# EC50 of BAP-105-01-01 (antibody, V domains shown, Non-conditionally active control; also called template antibody (WT)) VH: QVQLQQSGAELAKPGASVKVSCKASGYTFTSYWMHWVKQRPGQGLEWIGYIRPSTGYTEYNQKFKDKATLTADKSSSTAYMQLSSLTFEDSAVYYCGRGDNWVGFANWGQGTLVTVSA VL: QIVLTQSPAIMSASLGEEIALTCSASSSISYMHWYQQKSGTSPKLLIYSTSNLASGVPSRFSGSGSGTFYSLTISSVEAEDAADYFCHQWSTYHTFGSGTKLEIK = 0.863
